Please go through the items and note down their IC50.
Assay: Inhibition of HIV-1 His6-tagged integrase interaction to FLAG-tagged LEDGF/p75 preincubated for 30 mins prior to LEDGF/p75 addition measured after 60 mins by alphascreen assay
Parameters: species or system Human immunodeficiency virus 1
One number for each entry, in µM.

Worked examples follow.
compound	unitDescriptor	IC50
CC(=O)NC(c1ccccc1)c1cc(Cl)c2cccnc2c1O (centres undefined)	µM	3
CN1CCN(Cc2ccc(O)c3ncccc23)CC1	µM	0.8
CCC(=O)NC(c1ccco1)c1cc(Cl)c2cccnc2c1O (centres undefined)	µM	4
Cc1ccc(NCc2ccc(O)c3ncccc23)cc1C	µM	4.6

For every listed record, write down its IC50.
1. Oc1ccc(CNc2ccc(C(F)(F)F)cc2)c2cccnc12
2. Cc1ccc(NCc2ccc(O)c3ncccc23)cc1
3. CCC(=O)NC(c1cccs1)c1cc([N+](=O)[O-])c2cccnc2c1O (centres undefined)

Result:
2.1
3.3
3.5

For every listed record, write down its IC50.
1. CC(=O)NC(c1ccc(N(C)C)cc1)c1cc(Cl)c2cccnc2c1O (centres undefined)
2. Oc1ccc(Cl)c2cccnc12
3. CCOC(=O)N1CCN(Cc2ccc(O)c3ncccc23)CC1
4. CCC(=O)NC(c1ccccc1OC)c1ccc2cccnc2c1O (centres undefined)
5. Cc1cccnc1NCc1ccc(O)c2ncccc12
6. CCOC(=O)C1CCCN(Cc2ccc(O)c3ncccc23)C1 (centres undefined)
7. Oc1ccc(CN2CCCCC2)c2cccnc12

Result:
1. 4
2. 3.6
3. 1.5
4. 2
5. 3.5
6. 2
7. 0.4
